Where these numbers come from: ChEMBL document CHEMBL4330084

assay: Half life in human liver microsomes at 1 uM by LC-MS/MS analysis
Metric: t1/2

Compound | t1/2
CCC(C)n1ncn(-c2ccc(N3CCN(c4ccc(OCC5COC(Cn6cncn6)(c6ccc(Cl)cc6Cl)O5)cc4)CC3)cc2)c1=O (stereo not given) | 0.45 h
CC[C@@H](C)n1ncn(-c2ccc(N3CCN(c4ccc(OC[C@@H]5CO[C@@](C)(c6ccc(F)cc6F)C5)cc4)CC3)cc2)c1=O | 1.03 h
CC(=O)c1cccc(C(=O)Nc2ccc(N3CCN(c4ccc(OC[C@@H]5CO[C@@](C)(c6ccc(F)cc6F)C5)cc4)CC3)cc2)c1 | 1.92 h
CC[C@@H]([C@H](C)O)n1ncn(-c2ccc(N3CCN(c4ccc(OC[C@@H]5CO[C@@](Cn6cncn6)(c6ccc(F)cc6F)C5)cc4)CC3)cc2)c1=O | 1.8 h

Here is another compound to look at.
Reported t1/2 for C[C@]1(c2ccc(F)cc2F)C[C@H](COc2ccc(N3CCN(c4ccc(NC(=O)c5cccc(O)c5)cc4)CC3)cc2)CO1 : what is it? > 3 h

====

biological target: UniProt:Q12809; assay: Inhibition of human ERG expressed in CHO cells at 25 uM by electrophysiology assay relative to control; format: cell-based; details: CHO cells expressing human ERG
Sequence (Q12809 whole entry): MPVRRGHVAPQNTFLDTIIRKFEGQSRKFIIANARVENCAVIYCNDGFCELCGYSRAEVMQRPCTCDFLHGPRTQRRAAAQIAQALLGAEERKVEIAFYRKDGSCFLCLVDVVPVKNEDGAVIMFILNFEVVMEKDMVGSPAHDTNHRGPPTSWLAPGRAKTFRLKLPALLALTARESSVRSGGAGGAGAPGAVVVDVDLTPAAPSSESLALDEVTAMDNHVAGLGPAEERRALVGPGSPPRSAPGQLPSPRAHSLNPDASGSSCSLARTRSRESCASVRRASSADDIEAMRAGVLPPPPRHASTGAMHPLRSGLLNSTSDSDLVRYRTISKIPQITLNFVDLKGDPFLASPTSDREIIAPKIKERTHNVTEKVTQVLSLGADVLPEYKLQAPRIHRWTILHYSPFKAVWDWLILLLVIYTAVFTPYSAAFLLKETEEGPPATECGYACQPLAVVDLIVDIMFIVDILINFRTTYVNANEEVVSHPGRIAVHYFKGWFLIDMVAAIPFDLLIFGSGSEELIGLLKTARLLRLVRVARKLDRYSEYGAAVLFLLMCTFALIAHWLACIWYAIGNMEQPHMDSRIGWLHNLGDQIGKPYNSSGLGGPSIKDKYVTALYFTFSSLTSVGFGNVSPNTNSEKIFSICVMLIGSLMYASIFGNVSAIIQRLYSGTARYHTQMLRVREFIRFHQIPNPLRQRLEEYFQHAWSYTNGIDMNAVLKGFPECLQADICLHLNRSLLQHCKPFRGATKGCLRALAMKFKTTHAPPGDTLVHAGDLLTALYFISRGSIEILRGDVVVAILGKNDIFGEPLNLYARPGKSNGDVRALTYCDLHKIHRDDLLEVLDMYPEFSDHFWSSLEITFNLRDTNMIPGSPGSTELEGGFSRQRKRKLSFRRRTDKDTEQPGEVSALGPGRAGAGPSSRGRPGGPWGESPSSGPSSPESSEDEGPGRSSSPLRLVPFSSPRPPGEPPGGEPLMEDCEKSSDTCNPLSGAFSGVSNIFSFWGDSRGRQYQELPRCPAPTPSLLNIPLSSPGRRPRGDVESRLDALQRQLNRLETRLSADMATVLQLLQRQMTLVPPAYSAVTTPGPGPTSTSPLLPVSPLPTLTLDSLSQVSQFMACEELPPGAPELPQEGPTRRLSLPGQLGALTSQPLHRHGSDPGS
Metric: inhibition at 25 µM (%)
Give just the number in %; leave the unit off.

Compound | Endpoint Value
CC(=O)c1cccc(C(=O)Nc2ccc(N3CCN(c4ccc(OC[C@@H]5CO[C@@](C)(c6ccc(F)cc6F)C5)cc4)CC3)cc2)c1 | 4.2
CC[C@@H]([C@H](C)O)n1ncn(-c2ccc(N3CCN(c4ccc(OC[C@@H]5CO[C@@](Cn6cncn6)(c6ccc(F)cc6F)C5)cc4)CC3)cc2)c1=O | 14.7

Here is another compound to look at.
Reported inhibition at 25 µM for CC1(c2ccc(Cl)cc2Cl)OCC(COc2ccc(N3CCN(c4ccc(-n5cnn(CCC(=O)O)c5=O)cc4)CC3)cc2)O1 (centres undefined) : what is it? 3.6

====

test: Kinetic solubility of compound in pH 7.4 PBS by LC-MS/MS analysis; format: physicochemical; conditions: PBS, read-out: Kinetic_solubility
# reported solubility kinetic; entries follow

Compound | Metric | Endpoint Value
C[C@]1(c2ccc(F)cc2F)C[C@H](COc2ccc(N3CCN(c4ccc(NC(=O)c5cccc(O)c5)cc4)CC3)cc2)CO1 | solubility kinetic | 3.13 µM

Reported solubility kinetic for CC1(c2ccc(Cl)cc2Cl)OCC(COc2ccc(N3CCN(c4ccc(-n5cnn(CCC(=O)O)c5=O)cc4)CC3)cc2)O1 (stereo unspecified) : what is it? 0.781 µM

Further, for CCC(C)n1ncn(-c2ccc(N3CCN(c4ccc(OCC5COC(Cn6cncn6)(c6ccc(Cl)cc6Cl)O5)cc4)CC3)cc2)c1=O (stereo unspecified) ? 0.8 µM

Further, for CC(=O)c1cccc(C(=O)Nc2ccc(N3CCN(c4ccc(OC[C@@H]5CO[C@@](C)(c6ccc(F)cc6F)C5)cc4)CC3)cc2)c1 ? 3.13 µM

Further, for C[C@]1(c2ccc(F)cc2F)C[C@H](COc2ccc(N3CCN(c4ccc(-n5cnn(CCCO)c5=O)cc4)CC3)cc2)CO1 ? 1.56 µM

Further, for C[C@]1(c2ccc(F)cc2F)C[C@H](COc2ccc(N3CCN(c4ccc(NC(=O)c5cccnc5)cc4)CC3)cc2)CO1 ? 1.56 µM

====

# reported IC50; entries follow
molecular target: Cytochrome P450 3A4 (Homo sapiens)
Sequence (P08684 whole entry): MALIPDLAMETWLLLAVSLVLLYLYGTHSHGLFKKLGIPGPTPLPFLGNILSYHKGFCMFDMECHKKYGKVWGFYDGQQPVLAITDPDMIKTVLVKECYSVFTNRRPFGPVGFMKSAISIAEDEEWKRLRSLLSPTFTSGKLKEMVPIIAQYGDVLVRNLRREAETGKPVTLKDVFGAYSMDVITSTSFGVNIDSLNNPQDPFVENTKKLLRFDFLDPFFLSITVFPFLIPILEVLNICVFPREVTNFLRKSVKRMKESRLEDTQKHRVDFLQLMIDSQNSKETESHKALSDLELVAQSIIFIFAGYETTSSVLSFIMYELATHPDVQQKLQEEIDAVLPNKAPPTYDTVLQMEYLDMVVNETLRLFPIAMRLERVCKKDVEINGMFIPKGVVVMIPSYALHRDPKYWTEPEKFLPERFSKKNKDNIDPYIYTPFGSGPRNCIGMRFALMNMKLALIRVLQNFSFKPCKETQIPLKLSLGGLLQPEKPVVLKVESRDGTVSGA

Chemical Smiles | Target | Endpoint Value
CC(=O)c1cccc(C(=O)Nc2ccc(N3CCN(c4ccc(OC[C@@H]5CO[C@@](C)(c6ccc(F)cc6F)C5)cc4)CC3)cc2)c1 | Cytochrome P450 3A4 (Homo sapiens) | > 20 µM

Here is another molecule to look at.
Reported IC50 for CC[C@@H](C)n1ncn(-c2ccc(N3CCN(c4ccc(OC[C@@H]5CO[C@@](C)(c6ccc(F)cc6F)C5)cc4)CC3)cc2)c1=O : what is it? > 20 µM

====

settings: human, microsomes, 1 µM
Metric: CLH

Solved cases below.
Molecule | CLH
CC[C@@H](C)n1ncn(-c2ccc(N3CCN(c4ccc(OC[C@@H]5CO[C@@](C)(c6ccc(F)cc6F)C5)cc4)CC3)cc2)c1=O | 37.4 µL/min/mg
CC(=O)c1cccc(C(=O)Nc2ccc(N3CCN(c4ccc(OC[C@@H]5CO[C@@](C)(c6ccc(F)cc6F)C5)cc4)CC3)cc2)c1 | 20 µL/min/mg
CC[C@@H]([C@H](C)O)n1ncn(-c2ccc(N3CCN(c4ccc(OC[C@@H]5CO[C@@](Cn6cncn6)(c6ccc(F)cc6F)C5)cc4)CC3)cc2)c1=O [POSACONAZOLE] | 21.5 µL/min/mg

Here is another molecule to look at.
Reported CLH for C[C@]1(c2ccc(F)cc2F)C[C@H](COc2ccc(N3CCN(c4ccc(NC(=O)c5cccc(O)c5)cc4)CC3)cc2)CO1 : what is it? 2.23 µL/min/mg
